# Experimental Details: Toxicity liver stage against HepG2, at 10uM
# Assay type: cell-based
# Design: test concentration 10 uM, cell line HepG2-A16-CD81EGFP
# Assay Setup: human, HepG2-A16-CD81EGFP cells; read-out: INHIBITION
Reported Metric: cytotoxicity at 10 µM (%)
Numbers only, in %.

Use these answered entries as a reference point.
Compound	cytotoxicity at 10 µM, %
Cc1nn(C)c2ncnc(N3CCC(O)(CN4CCCC4)CC3)c12	2.68
COCCn1nc(C(=O)N(C)Cc2ccc3ccccc3c2)ccc1=O	-131
Cc1ccnn1CCCNC(=O)C1CCN(S(C)(=O)=O)CC1	3.63
COc1cccc(-c2cnc(CNC(C)(C)c3nc(C)cs3)o2)c1	11.4
Cc1csc(N2CCN(Cc3ccccn3)CC2C)n1 (centres undefined)	-8.84

Record cytotoxicity at 10 µM for all entries; do not skip any.
1. O=C1CCCN1CC1CN(C(=O)N2CCOCC2)Cc2nccn2C1 (centres undefined)
2. Cn1cnc(-c2nc(C(=O)NCCN3CCCC3)c3ccccn23)c1
3. COCC(C)(O)CNC(=O)Nc1cccc(OC)c1OC (centres undefined)

Reply:
[-1.05, -109, -2.75]

Record cytotoxicity at 10 µM for all entries; do not skip any.
1. Cn1cc(CN2CCCC23CCN(C(=O)c2ccncc2)CC3)cn1
2. N#Cc1cccc(CN2CCCC2Cn2cncn2)c1 (centres undefined)
3. CN(c1cccnn1)[C@@H]1CC[C@@H]2CN(Cc3ccccc3C(=O)O)C[C@@H]21

Reply:
1. -3.51
2. 3.15
3. 7.43

Record cytotoxicity at 10 µM for all entries; do not skip any.
1. CNS(=O)(=O)c1ccccc1N1CCN(C(=O)C(C)C)CC1
2. Cn1cnc(S(=O)(=O)NCC2(O)CCc3ccccc3C2)c1 (centres undefined)
3. O=C(NCCN1CCCCCC1)c1coc(COc2ccc(F)cc2)n1
4. Cc1nc(-c2cccc(N3CCC(N4CCCC4)CC3)c2)cs1
5. CC(O)CN(CC(=O)NC1CCCCC1)c1ccccc1 (centres undefined)

Reply:
4
-4.2
-4.07
-17.2
-6.08

Record cytotoxicity at 10 µM for all entries; do not skip any.
1. CC(=O)N1CCC2(CC1)COC(COCc1ccccn1)C2 (centres undefined)
2. Cc1noc(C)c1C(=O)NCC(c1ccc(F)cc1)N(C)C (centres undefined)
3. CC(C)OCCN1CCN(c2ccc(Cl)cn2)CC1
4. CN(C)CCCn1ccnc1C1CCN(c2cccc(C(=O)O)n2)CC1
5. CN1CCCN(C[C@@H]2CN(c3nc(C(N)=O)cs3)C[C@@H]2CO)CC1

Reply:
[-114, -0.0707, -1.67, 6.87, 2.67]

Record cytotoxicity at 10 µM for all entries; do not skip any.
1. CCc1nc(CCn2ccc3nc(OC)c(C#N)cc3c2=O)no1
2. c1ncc(-c2ccc(C3CNCCO3)nc2)cn1 (centres undefined)
3. Cc1cccc(S(=O)(=O)NCC2CCN(c3cnccn3)CC2)c1

Reply:
1. 3.57
2. -5.33
3. 7.99

====

# Experimental Details: Toxicity liver stage against HepG2, at 10uM
# Type: cell-based
# Parameters: test concentration 10 uM, cell line HepG2-A16-CD81EGFP
# Assay Setup: human, HepG2-A16-CD81EGFP cells; read-out: INHIBITION
Reported Metric: cytotoxicity at 10 µM (%)
Numbers only, in %.

Use these answered entries as a reference point.
Compound	Unit Label	cytotoxicity at 10 µM
Cc1ccc(Nc2cc(N3CCN(S(C)(=O)=O)CC3)nc(C)n2)cc1	%	6.91
Cn1c(Cn2ccnc2)nnc1C1CCCN(CC(C)(C)C)C1 (centres undefined)	%	3.89
O=C(CCNC(=O)c1ccc(Cl)cc1)NCc1nc(C2CC2)no1	%	0.648
Cc1ccccc1Cc1cnc(NC(=O)C2CNC(=O)N2)s1 (centres undefined)	%	-3.37
FC(F)(F)c1ccc(-c2cc(NC3CCNCC3)nc3[nH]ccc23)nc1	%	-0.608

Record cytotoxicity at 10 µM for all entries; do not skip any.
1. CCOCCNS(=O)(=O)c1cc(C)c2nc(O)cc(C)c2c1
2. CCN1CCN(c2cncc(Cl)n2)CC1
3. Fc1cnc(N2CCOCC3(CCCN(c4nncs4)C3)C2)nc1 (centres undefined)

Reply:
1. -4.77
2. 11.6
3. 2.01

Record cytotoxicity at 10 µM for all entries; do not skip any.
1. Cc1cc(C)c(CNc2ncnc3ccsc23)c(=O)[nH]1
2. COCCCNC(=O)CN(C)C(=O)CN(C)c1ccc(C#N)cn1
3. COc1ccc(Cl)cc1C(C(=O)O)N1CCSCC1 (centres undefined)
4. COc1ccc(CCNC(=O)CN2CCOCS2(=O)=O)cc1

Reply:
15.9
-6.08
-10.8
-2.64

Record cytotoxicity at 10 µM for all entries; do not skip any.
1. CC(NC(=O)NCc1ccc(Cl)s1)c1ccccn1 (centres undefined)
2. CCS(=O)(=O)Nc1ccn(Cc2cccc(F)c2)n1
3. Cc1cc(C2CCCN2S(=O)(=O)c2cnn(C)c2)on1 (centres undefined)
4. Cc1cc(C)n(CC2CN(CC(=O)Nc3cccnc3)CCO2)n1 (centres undefined)
5. CCc1ccc(CN2CCC(CNC(=O)c3ccc(C)nc3)C2)nc1 (centres undefined)
6. Cn1ccc(C(=O)Nc2nc(-c3ccc(Cl)cc3)n[nH]2)cc1=O

Reply:
1.64
6.22
-5.22
-3.1
7.78
-12.3

Record cytotoxicity at 10 µM for all entries; do not skip any.
1. CCOC(=O)N1CCN(C(=O)C(C)n2ccnc2C(C)C)CC1 (centres undefined)
2. Cn1c(N2CCOCC2)nc2cc(C(=O)NCc3cccnc3)ccc21

Reply:
-9.28
0.678

Record cytotoxicity at 10 µM for all entries; do not skip any.
1. CC(C)c1nccc([C@H]2C[C@@H]3CCN(Cc4ccoc4)C[C@H]3O2)n1
2. CCn1ccnc1CN1CCCC(CO)(Cc2cccc(Cl)c2)C1 (centres undefined)
3. CC(C)(C(=O)O)S(=O)(=O)c1ccc(Br)cc1
4. Cc1ccc2c(c1)SCC(=O)N2Cc1noc(C2CCCO2)n1 (centres undefined)

Reply:
[-4.45, -0.0444, 4.67, -0.0938]

====

Task for the reader: assign each of the following compounds its reported cytotoxicity at 10 µM.
# Experimental Details: Toxicity liver stage against HepG2, at 10uM
# Type: cell-based
# Parameters: test concentration 10 uM, cell line HepG2-A16-CD81EGFP
# Assay Setup: human, HepG2-A16-CD81EGFP cells; read-out: INHIBITION
Numbers only, in %.

Use these answered entries as a reference point.
Compound	cytotoxicity at 10 µM / %
CC(C)NC(=O)N1CCN(CCn2cccn2)c2ncccc2C1	-100
CC(=O)NCCc1ccc(S(=O)(=O)N(CC(C)C)C(C)C)s1	18.8
Cc1nn(C)c2cn(CC(=O)NC3CCSCC3)nc12	0.243
COc1ncccc1CNC(=O)Nc1cccnc1N1CCCC1	-10.4
CC(C(=O)Nc1ccc(N2CCCC2)nc1)n1cncn1 (stereo unspecified)	-6.19

Record cytotoxicity at 10 µM for all entries; do not skip any.
1. CCN1C(=O)CC[C@@H]2N(C(=O)CCn3nccc3C)CCCC[C@@]21C
2. Cc1cccc(C)c1NC(=O)CC(CN1CCN(C)CC1)C(=O)O (stereo unspecified)
3. Cc1nc(C(=O)N2CCN(S(C)(=O)=O)CC2)c(-c2ccccc2)s1
4. CCN(Cc1noc(C2CCC2)n1)C(=O)c1cnc2ccccc2c1
5. CCOCC1CC2(CCN(C(=O)c3ccccc3F)CC2)CO1 (stereo unspecified)

Reply:
1: -3.41; 2: -3.68; 3: 3.23; 4: 8.59; 5: 2.26

Per the record, Cc1nc(CNC(C(=O)N2CCOCC2)C(C)C)oc1C (stereo unspecified) has cytotoxicity at 10 µM of -4.34

====

Task for the reader: assign each of the following compounds its reported cytotoxicity at 10 µM.
# Experimental Details: Toxicity liver stage against HepG2, at 10uM
# Type: cell-based
# Parameters: test concentration 10 uM, cell line HepG2-A16-CD81EGFP
# Assay Setup: human, HepG2-A16-CD81EGFP cells; read-out: INHIBITION
Give bare numbers, in %.

Use these answered entries as a reference point.
Compound	Unit Label	cytotoxicity at 10 µM
O=C(c1[nH]nc(C2CC2)c1Cl)N1CCN(C2CC2)CC1	%	-5.58
Cc1cnn(CC2CN(CC(=O)Nc3nnc(C)s3)CCO2)c1 (stereo not given)	%	-0.472
Cc1c(Cn2cc(Cl)c(N)n2)cnn1C	%	-5.18
CCOCCC(=O)N1CCCCC1CCn1cccn1 (stereo not given)	%	-0.168

Record cytotoxicity at 10 µM for all entries; do not skip any.
1. COc1cc(Cl)ccc1C(=O)NCc1n[nH]c(C)n1
2. N#Cc1cnc2ccccc2c1N1CCN(CCC(=O)O)CC1
3. O=C(NS(=O)(=O)c1cccc(F)c1)c1ccccc1F
4. CN1CCOC(CNC(=O)Cc2coc(-c3ccccc3)n2)C1 (stereo not given)

Reply:
1: -4.07; 2: -1.28; 3: 9.39; 4: -25.1

Record cytotoxicity at 10 µM for all entries; do not skip any.
1. COCCN(Cc1sccc1C)C(=O)C1CCCN(C(N)=O)C1 (stereo not given)
2. CN1CCc2[nH]cnc2C12CCN(C(=O)c1noc3c1CCCC3)CC2
3. CC(C)c1cccc(-n2cc(O)c(C(=O)NCCC(=O)N(C)C)n2)c1

Reply:
-4.7
8.71
-2.53
